protocolDescription: Displacement of fluorescein labeled N6-(6-amino)hexyl-ATP-5-FAM from HSP70 by fluorescence polarization assay
measurementName: IC50

Consider the molecule Nc1ncnc2c1nc(NCc1ccc3ncccc3c1)n2[C@@H]1O[C@H](CO)[C@@H](O)[C@H]1O . State its measured IC50.
2900 nM

Recall and state the measured IC50 for Nc1ncnc2c1nc(N)n2[C@@H]1O[C@H](CO)[C@@H](O)[C@H]1O .
9400 nM

Recall and state the measured IC50 for Nc1ncnc2c1nc(NCc1ccc(Cl)c(Cl)c1)n2[C@@H]1O[C@H](COCc2cc(F)c(F)c(F)c2)[C@@H](O)[C@H]1O .
1700 nM

Write down IC50 measured for item N#Cc1ccc(COC[C@H]2O[C@@H](n3c(NCc4ccc(Cl)c(Cl)c4)nc4c(N)ncnc43)[C@H](O)[C@@H]2O)cc1
500 nM

###

protocolDescription: Binding affinity to HSP70 by Biocore direct binding assay
Please respond with reported Kd for every item in the list.
Lab book: enter the figure in nM, no units written.

Hello, please tell me recorded Kd for this one: Nc1ncnc2c1ncn2[C@@H]1O[C@H](COP(=O)(O)OP(=O)(O)O)[C@@H](O)[C@H]1O [ADENOSINE DIPHOSPHATE]
500

Name the recorded Kd of the item Nc1ncnc2c1nc(NCc1ccc(Cl)c(Cl)c1)n2[C@@H]1O[C@H](COCc2cc(F)c(F)c(F)c2)[C@@H](O)[C@H]1O in your answer.
4200

Input N#Cc1ccc(COC[C@H]2O[C@@H](n3c(NCc4ccccc4)nc4c(N)ncnc43)[C@H](O)[C@@H]2O)cc1 , output reported Kd.
200

Report Kd, nothing else, for this molecule: Nc1ncnc2c1nc(NCc1ccc3ncccc3c1)n2[C@@H]1O[C@H](COCc2cc(F)c(F)c(F)c2)[C@@H](O)[C@H]1O
120

Quote Kd reported for N#Cc1ccc(COC[C@H]2O[C@@H](n3c(NCc4ccc(Cl)c(Cl)c4)nc4c(N)ncnc43)[C@H](O)[C@@H]2O)cc1 please.
300

Tell me its Kd given Nc1ncnc2c1nc(N)n2[C@@H]1O[C@H](CO)[C@@H](O)[C@H]1O as the entry.
11000

For the molecule Nc1ncnc2c1nc(NCc1ccc3ncccc3c1)n2[C@@H]1O[C@H](COCc2ccc(C(F)(F)F)cc2)[C@@H](O)[C@H]1O , give its measured Kd value.
60

Give recorded Kd. N#Cc1ccc(COC[C@H]2O[C@@H](n3c(NCc4ccc5ncccc5c4)nc4c(N)ncnc43)[C@H](O)[C@@H]2O)cc1
50

###

protocolDescription: Displacement of fluorescein labeled N6-(6-amino)hexyl-ATP-5-FAM from HSP70 by fluorescence polarization assay
measurementName: IC50 (nM)
Report the figure in nM without appending any unit label.

Determine its reported IC50: Nc1ncnc2c1ncn2[C@@H]1O[C@H](CO)[C@@H](O)[C@H]1O [ADENOSINE]
560000

Input Nc1ncnc2c1nc(NCc1ccc(Cl)c(Cl)c1)n2[C@@H]1O[C@H](COCc2ccccc2)[C@@H](O)[C@H]1O , output reported IC50.
2400

Identify measured IC50 corresponding to N#Cc1ccc(COC[C@H]2O[C@@H](n3c(NCc4ccc5ncccc5c4)nc4c(N)ncnc43)[C@H](O)[C@@H]2O)cc1
900

Fill in reported IC50 for this entry: N#Cc1ccc(COC[C@H]2O[C@@H](n3c(NCc4ccccc4)nc4c(N)ncnc43)[C@H](O)[C@@H]2O)cc1
1300

Given COC[C@H]1O[C@@H](n2c(NCc3ccc(Cl)c(Cl)c3)nc3c(N)ncnc32)[C@H](O)[C@@H]1O , respond with its IC50.
3200

Retrieve IC50 measured for Nc1ncnc2c1nc(NCc1ccc3ncccc3c1)n2[C@@H]1O[C@H](COCc2ccc(C(F)(F)F)cc2)[C@@H](O)[C@H]1O and print it.
600

Note IC50 for the molecule shown: Nc1ncnc2c1nc(NCc1ccc3c(c1)OCO3)n2[C@@H]1O[C@H](CO)[C@@H](O)[C@H]1O
4900

Please give measured IC50 of the following entry: Nc1ncnc2c1ncn2[C@@H]1O[C@H](COP(=O)(O)OP(=O)(O)O)[C@@H](O)[C@H]1O [ADENOSINE DIPHOSPHATE]
500
